Acetylcholinesterase (Rattus norvegicus, UniProt P37136) measurements of pIC50, listed per entry.
Sequence (P37136 whole entry): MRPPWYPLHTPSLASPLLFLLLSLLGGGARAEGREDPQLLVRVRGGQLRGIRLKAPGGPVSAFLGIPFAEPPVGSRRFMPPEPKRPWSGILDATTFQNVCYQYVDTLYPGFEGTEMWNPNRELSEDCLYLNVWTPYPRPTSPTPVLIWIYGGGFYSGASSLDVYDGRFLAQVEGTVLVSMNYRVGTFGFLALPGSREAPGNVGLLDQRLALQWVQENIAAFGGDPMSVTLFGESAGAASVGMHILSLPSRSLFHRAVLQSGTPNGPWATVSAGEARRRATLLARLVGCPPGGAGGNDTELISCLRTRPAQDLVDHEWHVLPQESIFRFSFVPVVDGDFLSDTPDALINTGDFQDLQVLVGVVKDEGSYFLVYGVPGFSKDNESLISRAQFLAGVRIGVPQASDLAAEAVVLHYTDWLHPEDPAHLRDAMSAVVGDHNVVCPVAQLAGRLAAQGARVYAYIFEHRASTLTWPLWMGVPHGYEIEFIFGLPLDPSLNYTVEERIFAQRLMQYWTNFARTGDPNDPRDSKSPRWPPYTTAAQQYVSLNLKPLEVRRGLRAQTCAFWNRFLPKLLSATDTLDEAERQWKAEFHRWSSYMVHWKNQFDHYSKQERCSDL
Answers are plain numbers, as −log10 of the molar value.

Example entries and their recorded answers appear below.
SMILES_INPUT	MEASURED_TARGET	VALUE_MEASURED
CC1=C[C@H]2Cc3[nH]c(=O)ccc3[C@@]3(C1)[C@@H]2CCCN3C(=O)CCN(C)CCCCCCCCN(C)CCC(=O)N1CCC[C@@H]2[C@H]3C=C(C)C[C@]21c1ccc(=O)[nH]c1C3	Acetylcholinesterase (Rattus norvegicus, UniProt P37136)	7.73
CC1=C[C@H]2Cc3[nH]c(=O)ccc3[C@@]3(C1)[C@@H]2CCCN3C(=O)CCN1CCN(CCC(=O)N2CCC[C@@H]3[C@H]4C=C(C)C[C@]32c2ccc(=O)[nH]c2C4)CC1	Acetylcholinesterase (Rattus norvegicus, UniProt P37136)	6.77
CC1=C[C@H]2Cc3[nH]c(=O)ccc3[C@@]3(C1)[C@@H]2CCCN3C(=O)CN(C)CCCCCCCCCCN(C)Cc1cccc2ccccc12	Acetylcholinesterase (Rattus norvegicus, UniProt P37136)	6.92
CC1=C[C@H]2Cc3[nH]c(=O)ccc3[C@@]3(C1)[C@@H]2CCCN3C(=O)CCN(C)CCCCCCCCCCCCN(C)CCC(=O)N1CCC[C@@H]2[C@H]3C=C(C)C[C@]21c1ccc(=O)[nH]c1C3	Acetylcholinesterase (Rattus norvegicus, UniProt P37136)	7.64

Attention now turns to another entry.
# input compound: "CCCN(CCN1CCC[C@@H]2[C@H]3C=C(C)C[C@]21c1ccc(=O)[nH]c1C3)CCN1CCC[C@@H]2[C@H]3C=C(C)C[C@]21c1ccc(=O)[nH]c1C3" ; wanted: its pIC50
6.00

Values were extracted from ChEMBL document CHEMBL1146308.
